The values you see were collected from ChEMBL document CHEMBL2040720.

target: C-X-C chemokine receptor type 4 (Homo sapiens, UniProt P61073); assay: Displacement of [125I]-SDF-1alpha from CXCR4 receptor expressed in HEK293 cells after 1 hr by scintillation counting
Sequence (P61073 whole entry): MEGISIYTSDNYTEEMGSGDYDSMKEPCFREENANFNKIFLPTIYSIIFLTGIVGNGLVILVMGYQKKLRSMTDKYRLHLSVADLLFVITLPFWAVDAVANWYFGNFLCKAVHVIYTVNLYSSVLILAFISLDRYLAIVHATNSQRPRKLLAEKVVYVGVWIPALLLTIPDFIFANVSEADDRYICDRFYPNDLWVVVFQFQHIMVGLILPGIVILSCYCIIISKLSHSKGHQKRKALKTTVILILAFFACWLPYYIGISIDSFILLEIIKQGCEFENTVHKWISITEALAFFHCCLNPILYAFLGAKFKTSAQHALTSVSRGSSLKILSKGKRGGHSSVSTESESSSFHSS
Collected pIC50 values appear next to each entry.
// pIC50 here means minus log10 of the molar concentration (mol/L)

NC(N)=NCCC[C@@H]1NC(=O)[C@@H](Cc2ccc(O)cc2)NC(=O)CNC(=O)[C@H](Cc2ccc3ccccc3c2)N=C(N)[C@H](CCCN=C(N)N)NC1=O : 7.96
NC(N)=NCCC[C@@H]1N=C(N)[C@@H](Cc2ccc(O)cc2)NC(=O)CNC(=O)[C@H](Cc2ccc3ccccc3c2)NC(=O)[C@H](CCCN=C(N)N)NC1=O : 6.17
NC(N)=NCCC[C@@H]1NC(=O)[C@H](CCCN=C(N)N)NC(=O)[C@@H](Cc2ccc(O)cc2)N=C(N)CNC(=O)[C@H](Cc2ccc3ccccc3c2)NC1=O : 8.03
NC(N)=NCCC[C@@H]1N=C(N)[C@H](CCCN=C(N)N)NC(=O)[C@@H](Cc2ccc(O)cc2)NC(=O)CNC(=O)[C@H](Cc2ccc3ccccc3c2)NC1=O : 7.80
NC(N)=NCCC[C@@H]1NC(=O)[C@H](CCCN=C(N)N)NC(=O)[C@@H](Cc2ccc(O)cc2)NC(=O)CN=C(N)[C@@H](Cc2ccc3ccccc3c2)NC1=O : 8.31
CN1C(=O)[C@@H](Cc2ccc(O)cc2)NC(=O)CNC(=O)[C@H](Cc2ccc3ccccc3c2)NC(=O)[C@H](CCCN=C(N)N)NC(=O)[C@H]1CCCN=C(N)N : 7.43
N=C(N)NCCC[C@@H]1NC(=O)[C@H](CCCNC(=N)N)NC(=O)[C@@H](Cc2ccc(O)cc2)NC(=O)CNC(=N)[C@H](Cc2ccc3ccccc3c2)NC1=O : 8.38

Now for another entry.
Task: Specify the recorded pIC50 for `NC(N)=NCCC[C@@H]1N=C(N)[C@H](Cc2ccc(O)cc2)NC(=O)CNC(=O)[C@H](Cc2ccc3ccccc3c2)NC(=O)[C@H](CCCN=C(N)N)NC1=O` , system: C-X-C chemokine receptor type 4 (Homo sapiens, UniProt P61073).
Result: 6.48
